system: ARK5; construct: gene NUAK1; conditions: concentration: 1 μM, replicates: in singlicate; n = 1;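 also: KINOMEscan kinase panel screen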
Mark t for %Inh under 10%, f if at or over.

Here are 3 compounds together with their reported answers.
compound	experimental_system	qualitative_label
O=C(Nc1n[nH]c2nc(-c3ccco3)c(Br)cc12)C1CCN(Cc2ccccc2)C1.O=C(O)[C@H](O)[C@@H](O)C(=O)O (stereo not drawn)	ARK5	t
CNc1cc(-c2ccc3c(N)n[nH]c3c2)nc(N)n1	ARK5	t
CC(=O)c1cccc(NC(=O)NC2CCN(c3ccnc(Nc4ccc(F)cc4)n3)C2)c1 (stereo not drawn)	ARK5	f

Problem: Is %Inh of Cn1cncc1-c1cc2c(Nc3ccc(OCc4ccccc4)cc3)ncnc2cn1 strictly below 10%?
Result: f

Problem: Is %Inh of Cc1ccc(NC(=O)Nc2ccc(Cl)cc2)cc1-c1ccc(C(=O)Nc2ccncc2)cc1 strictly below 10%?
Result: t

Problem: Is %Inh of COc1ccc(Nc2nccc(N3CCC(NC(=O)C(C)c4ccc(Cl)cc4)C3)n2)cc1 (stereo not drawn) strictly below 10%?
Result: f

Problem: Is %Inh of Cl.Cl.Cl.N#Cc1ccc(CCNc2nccc(-c3cccc(CN4CCNCC4)c3)n2)cc1 strictly below 10%?
Result: f

###

tested on: ERK8; construct: gene MAPK15; settings: concentration: 1 μM, replicates: in singlicate; n = 1
For each entry below, report its %Inh value.
Numbers only, in %.

// solved cases for %Inh follow
compound	experimental_system	reported_measurement
Cc1ccccc1Cn1ccn2c(=O)cc(N3CCOCC3)nc12	ERK8	0
CN1c2ccc(-c3ccc(C(N)=O)cc3)cc2-c2[nH]ncc2S1(=O)=O	ERK8	17
Cc1ccc(NC(=O)Nc2ccccc2F)cc1-c1ccc(C(=O)Nc2ccncc2)cc1	ERK8	0

Field: %Inh. Fill in for each record below.
1. O=c1cc(N2CCOCC2)nc2n(Cc3cccc(Cl)c3Cl)c3ccccc3n12
2. c1ccc(-c2ccnc3[nH]ccc23)cc1
3. Cn1cncc1C(=O)NC1CCN(c2ccnc(Nc3ccc(F)cc3)n2)C1 (stereo not drawn)
4. FC(F)(F)c1ccccc1-c1cc(-c2c[nH]nc2-c2ccccn2)ccn1

Result:
[0, 0, 0, 0]

Field: %Inh. Fill in for each record below.
1. Cc1c(Cn2c(C)c(C)n3c(=O)cc(N4CCOCC4)nc23)cccc1C(F)(F)F
2. CNC(=O)c1ccc(C)c(-n2c(C)cc(OCc3ccc(F)cc3F)c(Br)c2=O)c1

Result:
[8, 13]

###

system: SRPK1; conditions: concentration: 1 μM, replicates: in singlicate; n = 1
For each entry below, report its %Inh value.

// solved cases for %Inh follow
compound	%Inh
Fc1ccc(-c2nn3cccc(F)c3c2-c2ccncc2)cc1	3%
COc1cccc(C2=C(Nc3cc(Cl)c(O)c(Cl)c3)C(=O)NC2=O)c1	11%
Cc1ccccc1-c1cc(-c2c[nH]nc2-c2ccccn2)ccn1	0%

Now for a further compound.
Problem: Look up %Inh: O=C(Nc1n[nH]c2nc(-c3ccco3)c(Br)cc12)C1CCN(Cc2ccccc2)C1.O=C(O)[C@H](O)[C@@H](O)C(=O)O (stereo not shown)
Result: 28%

###

system: TXK; conditions: concentration: 1 μM, replicates: in singlicate; n = 1
For each entry below, report its %Inh value.
Numbers only, in %.

// solved cases for %Inh follow
1. Cc1ccccc1Cn1ccn2c(=O)cc(N3CCOCC3)nc12 7
2. Cc1cnc(N)c(/C=C/c2cncc(C(=O)NCCc3ccc(Cl)cc3Cl)c2)c1.Cl 4
3. CS(=O)(=O)CCNCc1nc(-c2ccc3ncnc(Nc4ccc5c(cnn5Cc5ccccc5)c4)c3c2)cs1.Cl.Cl 3

Now for a further compound.
Problem: Query %Inh on TXK for Cc1c(Cn2c(C)c(C)n3c(=O)cc(N4CCOCC4)nc23)cccc1C(F)(F)F
Result: 20
